Provenance of the data: patent US8519149B2

studySystem: Recombinant human mPGES-1 (Homo sapiens, UniProt O14684)
Sequence (O14684 1-152): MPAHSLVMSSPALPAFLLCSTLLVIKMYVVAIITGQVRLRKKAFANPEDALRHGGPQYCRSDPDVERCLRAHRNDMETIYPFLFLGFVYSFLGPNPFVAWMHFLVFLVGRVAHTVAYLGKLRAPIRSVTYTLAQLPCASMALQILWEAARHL
protocolNotes: In-vitro mPGES-1 enzyme inhibition assay (PGE2 formation from PGH2, HTRF detection)
Type: biochemical
testSettings: 1 μM test compound; recombinant human mPGES-1 microsomal fraction; read-out: Percentage inhibition at 1 μM

>  <compound>
CC1(C)Cc2c(c(C(=O)NC3CCCCC3)cc3nc(Nc4c(Cl)cccc4Cl)[nH]c23)O1

>  <inhibition at 1 µM>
100%

$$$$
>  <compound>
Cc1cccc(Cl)c1Nc1nc2cc(C(=O)Nc3ccc(C(F)(F)F)c[n+]3[O-])c3c(c2[nH]1)CC(C)(C)O3

>  <inhibition at 1 µM>
62.8%

$$$$
>  <compound>
Cc1cccc(Cl)c1Nc1nc2cc(C(=O)Nc3cc(F)c(F)cc3F)c3c(c2[nH]1)CC(C)(C)O3

>  <inhibition at 1 µM>
97.1%

$$$$
>  <compound>
CC1(C)Cc2c(c(C(=O)Nc3cc(C4CC4)ccc3F)cc3nc(Nc4c(Cl)cncc4Cl)[nH]c23)O1

>  <inhibition at 1 µM>
100%

$$$$
>  <compound>
Cc1cccc(Cl)c1Nc1nc2cc(C(=O)Nc3cc(C(F)F)ccc3F)c3c(c2[nH]1)CC(C)(C)O3

>  <inhibition at 1 µM>
97.5%

$$$$
>  <compound>
Cc1ccc(NC(=O)c2cc3nc(Nc4c(Cl)cncc4Cl)[nH]c3c3c2OC(C)(C)C3)c(Cl)c1

>  <inhibition at 1 µM>
98.7%

$$$$
>  <compound>
CC1(C)Cc2c(c(C(=O)NCc3ccccc3C(F)(F)F)cc3nc(Nc4c(Cl)cccc4Cl)[nH]c23)O1

>  <inhibition at 1 µM>
94.1%

$$$$
>  <compound>
CC1(C)Cc2c(c(C(=O)Nc3ccc(C(F)(F)F)nc3)cc3nc(Nc4c(F)cccc4Cl)[nH]c23)O1

>  <inhibition at 1 µM>
96.1%

$$$$
>  <compound>
Cc1cccc(Cl)c1Nc1nc2cc(C(=O)Nc3ccc(C(F)(F)F)cc3)c3c(c2[nH]1)CC(C)(C)O3

>  <inhibition at 1 µM>
93.9%

$$$$
>  <compound>
Cc1cc2c(o1)c(C(=O)NCc1ccc(F)cc1)cc1nc(Nc3c(Cl)cncc3Cl)[nH]c12

>  <inhibition at 1 µM>
85.8%

$$$$

====

Below, each of the molecules is paired with its reported inhibition at 1 µM value.
studySystem: Recombinant human mPGES-1 (Homo sapiens)
protocolNotes: In-vitro mPGES-1 enzyme inhibition assay (PGE2 formation from PGH2, HTRF detection)
Assay type: biochemical
testSettings: 1 μM test compound; recombinant human mPGES-1 microsomal fraction; read-out: Percentage inhibition at 1 μM
Text: In-Vitro Protocol for Screening of mPGES-1 Inhibitors: mPGES-1 (microsomal prostaglandin E synthase-1) is a microsomal enzyme that converts endoperoxide substrate PGH2 (prostaglandin H2) to product PGE2 (prostaglandin E2) by isomerization in the presence of reduced glutathione (GSH). mPGES-1 inhibitors were screened by assessing their ability to inhibit formation of PGE2 from PGH2 in presence of mPGES-1 using anti-PGE2 antibody based detection method. […]
valueType: inhibition at 1 µM

>  <compound>
CC(C)(C)CC(C)(C)NC(=O)c1cc2nc(Nc3c(Cl)cncc3Cl)[nH]c2c2c1OC(C)(C)C2

>  <recordedValue>
92%

$$$$
>  <compound>
Cn1c(Nc2c(F)cccc2Cl)nc2cc(C(=O)Nc3cccc(C(F)(F)F)c3)c3c(c21)CC(C)(C)O3

>  <recordedValue>
95.9%

$$$$
>  <compound>
CC1(C)Cc2c(c(C(=O)Nc3cccc(C(F)(F)F)c3F)cc3nc(Nc4c(F)cccc4Cl)[nH]c23)O1

>  <recordedValue>
92.5%

$$$$
>  <compound>
Cc1cc(C(F)(F)F)ccc1NC(=O)c1cc2nc(Nc3c(F)cccc3Cl)[nH]c2c2c1OC(C)(C)C2

>  <recordedValue>
99.4%

$$$$
>  <compound>
CC1(C)Cc2c(c(C(=O)Nc3cc(F)c(F)cc3F)cc3nc(Nc4c(Cl)cccc4Cl)[nH]c23)O1

>  <recordedValue>
96.4%

$$$$
>  <compound>
CC1(C)Cc2c(c(C(=O)Nc3cc(C(F)(F)F)ccc3F)cc3nc(Nc4c(F)cccc4Cl)[nH]c23)O1

>  <recordedValue>
96.4%

$$$$
>  <compound>
CC1(C)Cc2c(c(C(=O)Nc3c(F)cccc3F)cc3nc(Nc4c(Cl)cccc4Cl)[nH]c23)O1

>  <recordedValue>
95.8%

$$$$
>  <compound>
Cc1cccc(Cl)c1Nc1nc2cc(C(=O)Nc3ccc(F)c(F)c3F)c3c(c2[nH]1)CC(C)(C)O3

>  <recordedValue>
95.1%

$$$$
>  <compound>
Cn1c(Nc2c(F)cccc2Cl)nc2cc(C(=O)Nc3ccc(C(F)(F)F)c[n+]3[O-])c3c(c21)CC(C)(C)O3

>  <recordedValue>
87.9%

$$$$
>  <compound>
Cc1cc2c(o1)c(C(=O)NCCC(C)C)cc1nc(Nc3c(Cl)cncc3Cl)[nH]c12

>  <recordedValue>
89.2%

$$$$
>  <compound>
CC1(C)Cc2c(c(C(=O)Nc3ccc(Cl)cc3)cc3nc(Nc4ccccc4Cl)[nH]c23)O1

>  <recordedValue>
98.4%

$$$$
>  <compound>
CC1(C)Cc2c(c(C(=O)Nc3ccccc3C(F)(F)F)cc3nc(Nc4ccccc4Cl)[nH]c23)O1

>  <recordedValue>
97.4%

$$$$

====

studySystem: Recombinant human mPGES-1 (Homo sapiens)
protocolNotes: In-vitro mPGES-1 enzyme inhibition assay (PGE2 formation from PGH2, HTRF detection)
Type: biochemical
testSettings: 10 μM test compound; recombinant human mPGES-1 microsomal fraction; read-out: Percentage inhibition at 10 μM
Below, each of the compounds is paired with its reported inhibition at 10 µM value.

>  <compound>
CC(C)c1ccc(NC(=O)c2cc3nc(Nc4c(Cl)cccc4Cl)[nH]c3c3c2OC(C)(C)C3)cc1

>  <studySystem>
Recombinant human mPGES-1 (Homo sapiens)

>  <inhibition at 10 µM / %>
98.4

$$$$
>  <compound>
Cc1ccc(NC(=O)c2cc3nc(Nc4c(Cl)cccc4Cl)[nH]c3c3c2OC(C)(C)C3)c(F)c1

>  <studySystem>
Recombinant human mPGES-1 (Homo sapiens)

>  <inhibition at 10 µM / %>
97.5

$$$$
>  <compound>
CC1(C)Cc2c(c(C(=O)NCc3ccc(F)cc3)cc3nc(Nc4c(F)cccc4Cl)[nH]c23)O1

>  <studySystem>
Recombinant human mPGES-1 (Homo sapiens)

>  <inhibition at 10 µM / %>
70.7

$$$$
>  <compound>
Cc1nc2c(o1)c(C(=O)Nc1ccc(C(F)(F)F)cc1)cc1nc(Nc3c(Cl)cccc3Cl)[nH]c12

>  <studySystem>
Recombinant human mPGES-1 (Homo sapiens)

>  <inhibition at 10 µM / %>
98.2

$$$$
>  <compound>
Cc1nc2c(o1)c(C(=O)Nc1ccc(C(C)(C)C)cc1)cc1nc(Nc3c(Cl)cccc3Cl)[nH]c12

>  <studySystem>
Recombinant human mPGES-1 (Homo sapiens)

>  <inhibition at 10 µM / %>
97.3

$$$$
>  <compound>
Cc1cccc(Cl)c1Nc1nc2cc(C(=O)Nc3ccc(C(F)(F)F)nc3)c3c(c2[nH]1)CC(C)(C)O3

>  <studySystem>
Recombinant human mPGES-1 (Homo sapiens)

>  <inhibition at 10 µM / %>
100

$$$$
>  <compound>
Cn1c(Nc2c(F)cccc2Cl)nc2cc(C(=O)Nc3ccc(C4CC4)cc3)c3c(c21)CC(C)(C)O3

>  <studySystem>
Recombinant human mPGES-1 (Homo sapiens)

>  <inhibition at 10 µM / %>
98.3

$$$$
>  <compound>
CC1(C)Cc2c(c(C(=O)Nc3ccccc3Br)cc3nc(Nc4c(Cl)cccc4Cl)[nH]c23)O1

>  <studySystem>
Recombinant human mPGES-1 (Homo sapiens)

>  <inhibition at 10 µM / %>
93.7

$$$$
>  <compound>
CC1(C)Cc2c(c(C(=O)Nc3ccccc3C(F)(F)F)cc3nc(Nc4c(F)cccc4Cl)[nH]c23)O1

>  <studySystem>
Recombinant human mPGES-1 (Homo sapiens)

>  <inhibition at 10 µM / %>
89.9

$$$$
>  <compound>
CN(C)CCNC(=O)c1cc2nc(Nc3c(Cl)cccc3Cl)[nH]c2c2c1OC(C)(C)C2

>  <studySystem>
Recombinant human mPGES-1 (Homo sapiens)

>  <inhibition at 10 µM / %>
69.8

$$$$
>  <compound>
Cc1cccc(Cl)c1Nc1nc2cc(C(=O)Nc3cc(C4CC4)ccc3F)c3c(c2[nH]1)CC(C)(C)O3

>  <studySystem>
Recombinant human mPGES-1 (Homo sapiens)

>  <inhibition at 10 µM / %>
96.9

$$$$
>  <compound>
CC1(C)Cc2c(c(C(=O)Nc3cc(C(F)(F)F)ccc3F)cc3nc(Nc4c(Cl)cncc4Cl)[nH]c23)O1

>  <studySystem>
Recombinant human mPGES-1 (Homo sapiens)

>  <inhibition at 10 µM / %>
99

$$$$
>  <compound>
Cc1ccc(Nc2nc3cc(C(=O)Nc4ccccc4C(F)(F)F)c4c(c3[nH]2)CC(C)(C)O4)c(C)n1

>  <studySystem>
Recombinant human mPGES-1 (Homo sapiens)

>  <inhibition at 10 µM / %>
46.2

$$$$
>  <compound>
CC1(C)Cc2c(c(C(=O)Nc3cccc(F)c3)cc3nc(Nc4c(F)cccc4Cl)[nH]c23)O1

>  <studySystem>
Recombinant human mPGES-1 (Homo sapiens)

>  <inhibition at 10 µM / %>
98.2

$$$$
>  <compound>
Cc1nc2c(o1)c(C(=O)Nc1cc(C(F)(F)F)ccc1F)cc1nc(Nc3c(F)cccc3Cl)[nH]c12

>  <studySystem>
Recombinant human mPGES-1 (Homo sapiens)

>  <inhibition at 10 µM / %>
98.5

$$$$
>  <compound>
CCC(C)(C)NC(=O)c1cc2nc(Nc3c(Cl)cccc3Cl)[nH]c2c2c1OC(C)(C)C2

>  <studySystem>
Recombinant human mPGES-1 (Homo sapiens)

>  <inhibition at 10 µM / %>
95.7

$$$$
